Molecular target: T1, human CD3 (human, UniProt P07766 23-207; P09693 23-182; P04234 22-171; P20963 22-164)
T1 construct: whole, on cells; SP34 is described as an anti-human CD3e antibody; also called human TCR/CD3 complex; CD3 on human pan-T cells
T1 sequence (P07766 23-207, chain 1 of 4): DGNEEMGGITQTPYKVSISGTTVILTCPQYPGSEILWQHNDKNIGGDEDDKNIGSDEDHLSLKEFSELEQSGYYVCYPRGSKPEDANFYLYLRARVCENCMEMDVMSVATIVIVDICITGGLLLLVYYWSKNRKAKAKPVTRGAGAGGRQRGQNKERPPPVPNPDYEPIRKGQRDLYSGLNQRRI
T1 sequence (P09693 23-182, chain 2 of 4): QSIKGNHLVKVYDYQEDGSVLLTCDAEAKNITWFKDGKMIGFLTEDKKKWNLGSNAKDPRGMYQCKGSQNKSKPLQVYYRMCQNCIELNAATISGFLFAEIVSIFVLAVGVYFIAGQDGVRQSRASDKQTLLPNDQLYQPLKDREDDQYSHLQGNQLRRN
T1 sequence (P04234 22-171, chain 3 of 4): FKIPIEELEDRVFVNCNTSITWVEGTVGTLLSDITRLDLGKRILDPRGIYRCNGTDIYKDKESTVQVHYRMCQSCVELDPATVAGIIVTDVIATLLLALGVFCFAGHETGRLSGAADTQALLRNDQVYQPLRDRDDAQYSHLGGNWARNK
T1 sequence (P20963 22-164, chain 4 of 4): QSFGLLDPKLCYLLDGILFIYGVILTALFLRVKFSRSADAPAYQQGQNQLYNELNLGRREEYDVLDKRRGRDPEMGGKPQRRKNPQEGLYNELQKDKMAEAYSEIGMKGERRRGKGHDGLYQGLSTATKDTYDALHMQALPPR
Assay: flow cytometry on human pan-T cells; MFI at 7.4 or 10 µg/ml relative to PR000260
measured property: binding result

binder: PR000514 (antibody, human IgG1, kappa, L234A L235A, V domains shown, humanized SP34 variant, IgG1 LALA; also called VH3731/VK1393 IgG) VH: EVQLVESGGGLVQPGGSLKLSCAASGFTFNTYAMNWVRQASGKGLEWVGRIRSKYNNYATYYADSVKDRFTISRDDSKSTLYLQMNSLKTEDTAVYYCVRHGNFGNSYVSWFAYWGQGTLVTVSS VL: DAQMTQSPSSLSASVGDRVTITCRSSTGAVTTSNYANWVQQKPGKAPKGLIGGTNKRAPGVPSRFSGSLSGDDATLTISSLQPEDFATYFCALWYSNLWVFGGGTKVEIKR
measured property: binding result
result: binds
//
binder: PR002472 (antibody, human IgG1, kappa, L234A L235A, V domains shown, humanized SP34 variant, IgG1 LALA; very low expression yield; also called VH3230/VK1393 IgG) VH: EVQLLESGGGLVQPGGSLRLSCAASGFTFNTYAMNWVRQAPGKGLEWVSRIRSKYNNYATYYADSVKDRFTISRDNSKNTLYLQMNSLRAEDTAVYYCAKHGNFGNSYVSWFAYWGQGTLVTVSS VL: DAQMTQSPSSLSASVGDRVTITCRSSTGAVTTSNYANWVQQKPGKAPKGLIGGTNKRAPGVPSRFSGSLSGDDATLTISSLQPEDFATYFCALWYSNLWVFGGGTKVEIKR
measured property: binding result
result: binds
//
binder: PR000511 (antibody, human IgG1, lambda, L234A L235A, V domains shown, humanized SP34 variant, IgG1 LALA; also called VH3231/VL7461 IgG) VH: EVQLLESGGGLVQPGGSLRLSCAASGFTFNTYAMNWVRQAPGKGLEWVSRIRSKYNNYATYYADSVKDRFTISRDDSKSTLYLQMNSLRAEDTAVYYCVRHGNFGNSYVSWFAYWGQGTLVTVSS VL: QAVVTQEPSLTVSPGGTVTLTCRSSTGAVTTSNYANWVQQKPGQAPRGLIGGTNKRAPWTPARFSGSLLGDKAALTLLGAQPEDEAEYFCALWYSNLWVFGGGTKLTVLG
measured property: binding result
result: binds
